Each entry below carries its reported pEC50.
- Test system: Jurkat Fadd−/−
- Protocol Details: Necroptosis induced by TNF in Jurkat Fadd−/− cells (Table 1)
- Format: cell-based
- Condition Set: Homo sapiens, intracellular ATP level, read-out: EC50, ATP level
Reminder that pEC50 is minus the log10 of a molar concentration.

{"Compound": "CN1C(=O)C(Cc2c[nH]c3ccccc23)NC1=S (stereo not drawn) [Nec-1, necrostatin-1, reference compound]", "pEC50": 5.89}
{"Compound": "CCOc1ccc(-c2cc3cccnc3n2C(C)=O)cc1", "pEC50": 5.59}

Attention now turns to another entry.
GET /value?item= CCOc1ccc(-c2cc3cccn(C(=O)N(CC)CC)c-3n2)cc1 &field=pEC50 returns 5.03
